Numbers sourced from patent US20250313627A1.

subject-of-test: T1, human ROR1 (Receptor Tyrosine Kinase-Like Orphan Receptor 1) on the cell surface (human, UniProt Q01973 30-937)
T1 construct: whole, on cells; engineered into B16-F10 (high density) and LS174T (low density) cells; also called B16-F10-ROR1-H; LS174T-ROR1-L
protocol-notes: flow cytometry, LS174T cells expressing human ROR1 (low density)
# MFI per record follows
Response field accepts a number only; no unit should be typed.

Form field: reported MFI of F22158106 (h5A1-BI-006 Fc) (Fc fusion, VHH-Fc format; not shown: Fc of the VHH-Fc format) EVQLLESGGGLVQPGGSLRLSCAASGYTNRIKCMGWFRQAPGKEREEVASISTGTGNTYYADSVKGRFTISQDKSKNTLYLQMNSLKAEDTAVYYCAADVRPDGRTCHYNSRGQGTLVTVSS 17400

Given F221581019 (h5A1-BI-019 Fc) (Fc fusion, VHH-Fc format; also called F22158119; not shown: Fc of the VHH-Fc format) EVQLLESGGGLVQPGGSLRLSCAASGYTNRIKCMGWFRQAPGKEREEVASISTGTGNAYYADSVKGRFTISQDKSKNTLYLQMNSLKAEDTAVYYCAADVRPHGRTCHYNSRGQGTLVTVSS , state its recorded MFI. 33800

Any idea what MFI was measured for F221581017 (h5A1-BI-017 Fc) (Fc fusion, VHH-Fc format; also called F22158117; not shown: Fc of the VHH-Fc format) EVQLLESGGGLVQPGGSLRLSCAASGYTNRIKCMGWFRQAPGKEREEVASISTGTGNAYYADSVKGRFTISQDKSKNTLYLQMNSLKAEDTAVYYCAADVRPHGTTCHYNSRGQGTLVTVSS ? 28600

Bench note: what MFI did F22158103 (h5A1-BI-003 Fc) (Fc fusion, VHH-Fc format; not shown: Fc of the VHH-Fc format) EVQLLESGGGLVQPGGSLRLSCAASGYTNRLKCMGWFRQAPGKEREEVASISTGTGNAYYADSVKGRFTISQDKSKNTLYLQMNSLKAEDTAVYYCAADVRPDGTTCHYNKRGQGTLVTVSS show? 15800
